target: human α2δ-1 subunit of Cav2.2 calcium channel (Homo sapiens); test: Binding assay to human α2δ-1 subunit of Cav2.2 calcium channel ([3H]-Gabapentin); details: binding expressed as Ki; [3H]-Gabapentin 15 nM, human α2δ-1 enriched membranes
Sequence (P54289 25-1103): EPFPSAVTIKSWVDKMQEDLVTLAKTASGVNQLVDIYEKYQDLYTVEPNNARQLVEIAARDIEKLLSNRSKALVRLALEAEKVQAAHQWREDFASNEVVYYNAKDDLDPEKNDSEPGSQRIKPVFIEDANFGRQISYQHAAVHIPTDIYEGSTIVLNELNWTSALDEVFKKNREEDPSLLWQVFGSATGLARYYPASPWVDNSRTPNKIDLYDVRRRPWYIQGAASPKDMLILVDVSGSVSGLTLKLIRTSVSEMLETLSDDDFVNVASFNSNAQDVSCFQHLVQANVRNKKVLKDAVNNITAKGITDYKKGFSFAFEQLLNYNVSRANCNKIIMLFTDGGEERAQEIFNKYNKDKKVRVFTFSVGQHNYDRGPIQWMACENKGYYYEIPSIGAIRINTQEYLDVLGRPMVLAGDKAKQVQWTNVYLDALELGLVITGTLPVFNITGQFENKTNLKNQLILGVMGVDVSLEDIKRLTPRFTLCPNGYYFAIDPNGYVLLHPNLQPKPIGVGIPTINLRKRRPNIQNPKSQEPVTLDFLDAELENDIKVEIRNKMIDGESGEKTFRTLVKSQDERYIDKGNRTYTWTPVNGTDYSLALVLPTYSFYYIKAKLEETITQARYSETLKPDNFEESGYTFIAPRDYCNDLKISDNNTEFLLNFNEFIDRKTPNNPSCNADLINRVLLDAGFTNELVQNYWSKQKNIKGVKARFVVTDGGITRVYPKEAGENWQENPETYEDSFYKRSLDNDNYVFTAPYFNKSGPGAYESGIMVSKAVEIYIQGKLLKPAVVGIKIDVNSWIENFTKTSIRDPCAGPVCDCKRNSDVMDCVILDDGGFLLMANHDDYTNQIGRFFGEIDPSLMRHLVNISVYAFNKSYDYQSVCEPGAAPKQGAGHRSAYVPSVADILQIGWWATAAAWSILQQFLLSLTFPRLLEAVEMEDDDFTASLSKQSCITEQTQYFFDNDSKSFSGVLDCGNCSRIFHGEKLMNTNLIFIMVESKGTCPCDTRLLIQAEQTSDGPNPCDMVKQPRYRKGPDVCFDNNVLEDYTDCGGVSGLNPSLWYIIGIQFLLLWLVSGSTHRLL
Counter-ions that a name gives are not always drawn.
experimental_endpoint: Ki

CC[C@@H](c1cccc(Cl)c1)[C@@H](CNC)C(=O)N1CCC2(CC1)c1ccccc1CCN2C [Example 3, dihydrochloride]
< 500 nM
CC[C@@H](c1ccccc1)[C@@H](CN)C(=O)N1CCC2(CC1)c1ccccc1CCN2C [Example 1]
< 500 nM
CC[C@@H](c1cccc(Cl)c1)[C@@H](CN)C(=O)N1CCC2(CC1)c1ccccc1CCN2C [Example 4]
< 500 nM
CNC[C@@H](C(=O)N1CCC2(CC1)c1ccccc1CCN2C)[C@@H](C)c1ccccc1 [Example 2]
< 500 nM
